The values you see were collected from a melting point compilation (Tetko et al.).

I'd be grateful if you could share measured melting point for these entries.
Answer format: numeric, °C implied, no suffix.

Enquiry: Please list melting point recorded for the molecule CC(=O)Nc1cc([N+](=O)[O-])c(/C=C/c2ccccc2)c([N+](=O)[O-])c1/C=C/c1ccccc1
Return: 171

Enquiry: Please list melting point recorded for the molecule Cn1ncc2c(NCCOC(=O)c3cc([N+](=O)[O-])cc([N+](=O)[O-])c3)ncnc21
Return: 299

Enquiry: Please list melting point recorded for the molecule CC(C)(C)N(NC(=O)c1ccccc1)C(=O)c1c(Cl)cccc1Cl
Return: 198

Enquiry: Please list melting point recorded for the molecule COc1ccc(OC)c(C#N)c1
Return: 82

Enquiry: Please list melting point recorded for the molecule CCCOC(=O)CCCCC(=O)OCCC
Return: -15.7

Enquiry: Please list melting point recorded for the molecule Clc1ccc(C(c2ccccc2Cl)C(Cl)Cl)cc1 (stereo not given)
Return: 77

Enquiry: Please list melting point recorded for the molecule Cc1ccccc1-c1ccccc1P(C(C)(C)C)C(C)(C)C
Return: 91.5

Enquiry: Please list melting point recorded for the molecule c1ccc(Cc2ccccc2)cc1
Return: 25.2

Enquiry: Please list melting point recorded for the molecule O=C(O)CNC(=O)CCl
Return: 102

Enquiry: Please list melting point recorded for the molecule c1ccc2c(c1)cc1ccc3c4ccccc4cc4ccc2c1c43
Return: 317

Enquiry: Please list melting point recorded for the molecule CCN(CC)c1nc(C)cc(OP(=S)(OC)OC)n1
Return: 21

Enquiry: Please list melting point recorded for the molecule CCCCCCCCCCCCCCCCOC(=O)C(C)O (stereo not given)
Return: 41

Enquiry: Please list melting point recorded for the molecule CC1CCC(=O)N1 (stereo not given)
Return: 43

Enquiry: Please list melting point recorded for the molecule COc1ccccc1C(=O)Oc1ccc(C(=O)/C=C/c2ccc(N(C)C)cc2)cc1
Return: 99

Enquiry: Please list melting point recorded for the molecule O=C(F)c1ccccc1
Return: -28

Enquiry: Please list melting point recorded for the molecule O=C1CCc2cc(Cl)ccc21
Return: 94

Enquiry: Please list melting point recorded for the molecule CCC(N)(CO)CO
Return: 37.5

Enquiry: Please list melting point recorded for the molecule Nc1c(Cl)cncc1Cl
Return: 161

Enquiry: Please list melting point recorded for the molecule COc1ncc(F)cc1F
Return: 38

Enquiry: Please list melting point recorded for the molecule CC(C)(C(N)=O)n1nc2ccccc2n1
Return: 174

Enquiry: Please list melting point recorded for the molecule O=C1/C(=C/c2ccc([N+](=O)[O-])cc2)SC(=S)N1CNc1ccc([N+](=O)[O-])cc1
Return: 189

Enquiry: Please list melting point recorded for the molecule CN1CC(=O)NC1=N
Return: 255

Enquiry: Please list melting point recorded for the molecule CC(C)C1C(=O)NC(=O)NC1=O
Return: 214

Enquiry: Please list melting point recorded for the molecule Nc1c(Br)cc(Br)cc1C(F)(F)F
Return: 42

Enquiry: Please list melting point recorded for the molecule O=C(O)C=CC(=O)Nc1ccc(I)cc1
Return: 194

Enquiry: Please list melting point recorded for the molecule CC1(C)CCC2(C(=O)O)CCC3(C)C(=CCC4C5(C)CCC(O)C(C)(C=O)C5CCC43C)C2C1 (stereo not given)
Return: 275

Enquiry: Please list melting point recorded for the molecule O=COCC=Cc1ccccc1
Return: 0

Enquiry: Please list melting point recorded for the molecule Cc1ccc(N)c(O)c1
Return: 157

Enquiry: Please list melting point recorded for the molecule CC(C(O)c1ccccc1)N(C)CC=Cc1ccccc1 (stereo not given)
Return: 75

Enquiry: Please list melting point recorded for the molecule CC(C=CC=C(C)C=CC12OC1(C)CC(O)CC2(C)C)=CC=CC=C(C)C=CC=C(C)C=CC12OC1(C)CC(O)CC2(C)C (stereo not given)
Return: 208

Enquiry: Please list melting point recorded for the molecule Clc1cc(C(Cl)Cl)c(Cl)cc1C(Cl)Cl
Return: 72

Enquiry: Please list melting point recorded for the molecule O=C(O)c1cc(I)ccc1F
Return: 163

Enquiry: Please list melting point recorded for the molecule N#Cc1ncccc1Cl
Return: 84

Enquiry: Please list melting point recorded for the molecule COC(=O)c1ccccc1OC1OC(COC2OCC(O)C(O)C2O)C(O)C(O)C1O (stereo not given)
Return: 180

Enquiry: Please list melting point recorded for the molecule NNc1nncc2ccccc12
Return: 172

Enquiry: Please list melting point recorded for the molecule O=[N+]([O-])c1ccccc1/C=C/c1nc2ccccc2[nH]1
Return: 215

Enquiry: Please list melting point recorded for the molecule Clc1cc2c(cc1Cl)Oc1cc(Cl)c(Cl)cc1O2
Return: 305

Enquiry: Please list melting point recorded for the molecule NC(=O)c1cccc(C(F)(F)F)c1F
Return: 96

Enquiry: Please list melting point recorded for the molecule CCCCCCCCC=CCCCCCCCC(=O)OCC(O)CO (stereo not given)
Return: 35
